Target chain: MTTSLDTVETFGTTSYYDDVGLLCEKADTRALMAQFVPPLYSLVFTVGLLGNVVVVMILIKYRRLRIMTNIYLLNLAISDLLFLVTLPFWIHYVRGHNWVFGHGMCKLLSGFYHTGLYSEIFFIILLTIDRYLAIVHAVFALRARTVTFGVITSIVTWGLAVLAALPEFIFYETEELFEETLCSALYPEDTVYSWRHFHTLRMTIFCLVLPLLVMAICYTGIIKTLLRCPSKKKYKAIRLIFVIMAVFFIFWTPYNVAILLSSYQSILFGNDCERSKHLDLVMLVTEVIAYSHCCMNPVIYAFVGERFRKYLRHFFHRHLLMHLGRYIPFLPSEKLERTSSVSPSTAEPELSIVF
pIC50: −log10 of the molar value.
endpoint-name: pIC50

Inquiry: Look up and report measured pIC50 for this entry: O=C(C=C1CCN(CCc2ccc(F)cc2)CC1)NCc1ccc(F)c(F)c1
Reply text: ~6.70
